- Assayed System: pooled human IgG (human IgG1,2,3 and 4)
Here the recorded Enzyme Activity Endpoint Assay (purified): Fab′2 is given for each entry.
Number plus unit, in that order.

Below, 3 proteins whose answers are already recorded.
PRT-521 (protein) MVTSVWTKGVTPPADFTQGEDVFHAPYVANQGWYDITKTFNGKDNLLCGAATAGNMLHWWFDQNKEYIEAYLKKHPEKQKIIFNNQELFDLKAAINTKGSQKNSELFNYFRDKAFPNLSARRLGVFPDLVLDMFINGYYLNVTKTQTTDVNRTYQEKDKRGGIFDAVFTRGVQSKLLTSRHDLKNKGLKEISDLIKQELTEGKALGLSHTYANVRINHVINLWGADFDSDGNLKAIYVTDSDTNASIGMKKYFVGVNSAGKVAISAKEIKEDNIGAQVLGLFTLSTGQDIWNQTNLEHHHHHH | 0 ng/µL
PRT-364 (protein) MSQTEDSESLQRLRDIEDFQAEKKKQNVVYTKWLDGVDVKDHDFRKIVDGNEAYYATPLLNGRGFYDINKDFNRDSDKCAAAVAANMFHYWLDRNRDNVDRFLRQNPEKHGIIELPDGQLKLSDFLNTYESDDGYRDKSKLFDFISENFNGPVWTDKLLDNYINGYAYNYKYGRTIEDPTKNTSKINFFKEVFNEKILTNNHSIRNQNELSVLLSEALYTGKAIGLSYGPAGLRHSLGHIISVWGADLDADGNVVAIYVTDSDDKKLTIGDERVGLKRYKISTDDEGRLRLTAYEETHNTGGQIRGLWTLDTGKQAWADYFDKTEQTGTDQAEQ | 863 ng/µL
PRT-357 (protein) MSQTEDSESLQRLRDIEDFQAEKEKQNVVYTKWLDGVDVKDHDFRKIVDGNSAYYATPLLNGRGWYDINKDFNRDSDKCAAAVAANMFHYWLDRNRDNVDRFLRQNPEKHGIIELPDGQLKLSDFLNTYESDDGYRDKSKLFDFISNNFNGPVWTDKLLDNYINGYAYNYKYGRTIEDPTKNTSKINFFKEVFNEKILTNNHSIRNQNEFSVLLSEALYTGKAIGLSYGPAGLRHSLGHIISVWGADLDADGNVVAIYVTDSDDKKLTIGDERVGLKRYKISTDDEGRLRLTAYEETHNTGGQVRGLWTLDTGKQAWADYFDKTEQTGTDQAEQ | 724 ng/µL

Please examine the following record next.
Provide Enzyme Activity Endpoint Assay (purified): Fab′2 value for the following protein: PRT-345 (protein) MTITSVWTKGVTPPTPEDFRENNEDVLHAPYLANQGWYDITKAFDGKDNLLCGAATAGNMLHWWFDQNKEEIERYLKKHPEKQKIIFNNQELFDVKAAIDTKDSQTNSKLFDYFRDKAFPNLSARQLGVMPDLVLDMFINGYYLNLGKTQSTDVNRPYQDKDKRGGIFDAVFTRGDQTTLLTARHDLKNKGLNEISDLIKQELTEGKALALSHTYANVSINHVINLWGADFDAEGELEAIYVTDSDANPSIGMKKYFVGRNAHGKVAISAKKIEGDNIGAQVLGLFTLSTGQDIWQKLS 61 ng/µL

All values here come from patent US20250027068.
